Below, each of the molecules is paired with its reported inhibition at 20 µM value.
biological target: Rho-A (Homo sapiens (Human)); experiment: Rho inhibition assay (labeled GTP); format: binding; settings: read-out: Rho-A % Inh.
Sequence (P61586 whole entry): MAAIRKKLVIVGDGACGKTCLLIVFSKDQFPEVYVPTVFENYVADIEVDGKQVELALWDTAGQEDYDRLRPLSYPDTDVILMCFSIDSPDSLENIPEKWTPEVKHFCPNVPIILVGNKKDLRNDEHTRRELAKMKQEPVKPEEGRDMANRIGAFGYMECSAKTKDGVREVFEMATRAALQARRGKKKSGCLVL

Observe how each entry below is paired with its result.
>>> print(df.to_string())
                                   molecule    measured_endpoint      result
0  COC(=O)c1c(C)sc2c(O)nc(-c3ccccn3)nc12 [drawing 3792]  inhibition at 20 µM  76 to 100%
1  Cn1cc(C2CN(C(=O)c3csc4c(O)nc(-c5ccccn5)nc34)CCN2)cn1 (stereo not drawn) [drawing 3666]  inhibition at 20 µM  76 to 100%
2  Cc1ccccc1N1CCN(C(=O)c2csc3c(O)nc(-c4ccccn4)nc23)CC1 [drawing 3628]  inhibition at 20 µM  76 to 100%

Please give the documented inhibition at 20 µM of COc1cnc(-c2ccccn2)nc1O [drawing 3787]
76 to 100%

Please give the documented inhibition at 20 µM of Cn1ccnc1-c1nc(O)c2scc(-c3ccc(F)cc3F)c2n1 [drawing 3934]
25 to 50%

Please give the documented inhibition at 20 µM of Oc1nc(-c2ccccn2)nc2cc(-c3ccccc3)sc12 [drawing 3880]
51 to 75%

Please give the documented inhibition at 20 µM of O=C(NCCc1ccncc1)c1csc2nc(-c3ccccn3)nc(N3CCOCC3)c12 [drawing 3668]
51 to 75%

Please give the documented inhibition at 20 µM of Oc1nc(-c2ccccn2)nc2c(-c3ccc(C4CCC4)cc3)csc12 [drawing 3737]
51 to 75%

Please give the documented inhibition at 20 µM of COc1cc(OC)cc(N2CCN(C(=O)c3csc4c(O)nc(-c5ccccn5)nc34)CC2)c1 [drawing 3646]
25 to 50%

---

Target: KRas G12D mutant protein (Homo sapiens (Human), UniProt P01116, G12D)
Sequence (P01116-2 other isoform, or with tags, fused parts or gaps G12D): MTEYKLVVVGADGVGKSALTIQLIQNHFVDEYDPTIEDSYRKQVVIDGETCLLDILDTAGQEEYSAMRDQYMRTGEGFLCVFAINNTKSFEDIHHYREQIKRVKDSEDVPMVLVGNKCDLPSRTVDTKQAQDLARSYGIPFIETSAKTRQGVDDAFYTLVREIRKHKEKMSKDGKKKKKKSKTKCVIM
Experiment: Ras GTP binding domain inhibition assay (labeled GTP)
Conditions: at 20 μM; read-out: KRas G12D % Inh.
Description: The following method was developed as specific assay for KRas G12D mutant protein. Buffer-I: • 50 mM Tris, pH 7.5 • 150 mM NaCl (optional) • 1 mM MgCl2 • 1 mM DTT. • KRas G12D mutant protein was expressed as a His-tagged protein. […]
Below, each of the compounds is paired with its reported inhibition at 20 µM value.

                                   compound    measured_endpoint     result
0  CC(CO)Nc1nc(-c2nccn2C)nc2sc(-c3ccccc3)c(-c3ccccc3)c12 (stereo not drawn) [drawing 3896]  inhibition at 20 µM   1 to 25%
1  O=C(c1csc2c(O)nc(-c3ccccn3)nc12)N1CCC(c2ccncc2)C1 (stereo not drawn) [drawing 3711]  inhibition at 20 µM  51 to 75%

Please give the documented inhibition at 20 µM of COCCNc1nc(-c2nccn2C)nc2sc(-c3ccccc3)c(-c3ccccc3Cl)c12 [drawing 3898]
25 to 50%

Please give the documented inhibition at 20 µM of COCCNc1nc(-c2nccn2C)nc2sc(-c3ccccc3Cl)c(-c3ccccc3)c12 [drawing 3899]
1 to 25%

---

biological target: Rho-A (Homo sapiens (Human)); assay: Rho inhibition assay (labeled GTP); format: binding; details: read-out: Rho-A % Inh.
measured endpoint: inhibition at 20 µM

Observe how each entry below is paired with its result.
                                   compound                   test_target      result
0  O=C(O)c1cc2nc(-c3ccccn3)nc(O)c2s1 [drawing 3722]  Rho-A (Homo sapiens (Human))  76 to 100%
1  COc1ccc(-c2cc3nc(-c4ccccn4)nc(O)c3s2)cc1 [drawing 3881]  Rho-A (Homo sapiens (Human))    1 to 25%
2  Oc1nc(-c2ccccn2)nc2c(-c3cccc(C(F)(F)F)c3)csc12 [drawing 3745]  Rho-A (Homo sapiens (Human))   25 to 50%
3  O=C(NCCc1cnc(O)nc1)c1csc2nc(-c3ccccn3)nc(N3CCS(=O)(=O)CC3)c12 [drawing 3726]  Rho-A (Homo sapiens (Human))   51 to 75%
4  Oc1nc(-c2ccccn2)nc2c(-c3ccnn3-c3ccccn3)csc12 [drawing 3776]  Rho-A (Homo sapiens (Human))   25 to 50%

Look up and report measured inhibition at 20 µM (Rho-A (Homo sapiens (Human))) for the following compound: Oc1nc(-c2ccccn2)nc2cc(-c3ccc(-c4ccccc4)cc3)sc12 [drawing 3877]
1 to 25%

Look up and report measured inhibition at 20 µM (Rho-A (Homo sapiens (Human))) for the following compound: COCCN(CCOC)c1nc(-c2ccccn2)nc2scc(C(=O)NCCc3ccc(OC)nc3)c12 [drawing 3681]
51 to 75%

Look up and report measured inhibition at 20 µM (Rho-A (Homo sapiens (Human))) for the following compound: COCC(C)Nc1nc(-c2ccccn2)nc2sc(-c3ccncc3)c(-c3ccccc3)c12 (centres unmarked) [drawing 3859]
51 to 75%
